Reference source: patent US8119624B2

Target: Full-length glucokinase (beta cell isoform) (Homo sapiens)
Construct: Full-length glucokinase (beta cell isoform) was His-tagged at N-terminus; His tag (N); made in house
Sequence (P35557 1-465): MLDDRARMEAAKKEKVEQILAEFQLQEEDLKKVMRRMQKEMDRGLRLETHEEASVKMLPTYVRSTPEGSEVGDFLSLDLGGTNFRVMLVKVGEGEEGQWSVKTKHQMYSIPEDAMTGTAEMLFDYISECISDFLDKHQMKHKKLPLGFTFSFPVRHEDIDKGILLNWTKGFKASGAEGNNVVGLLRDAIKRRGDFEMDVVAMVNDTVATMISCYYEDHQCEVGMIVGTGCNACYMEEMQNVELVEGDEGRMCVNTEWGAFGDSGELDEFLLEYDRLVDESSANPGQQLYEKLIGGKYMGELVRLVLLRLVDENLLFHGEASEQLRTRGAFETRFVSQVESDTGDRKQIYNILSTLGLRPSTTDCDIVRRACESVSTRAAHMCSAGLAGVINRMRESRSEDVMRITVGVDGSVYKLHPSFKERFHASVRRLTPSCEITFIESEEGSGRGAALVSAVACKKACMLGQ
Assay: Glucokinase biochemical assay (PK/LDH-coupled, NADH depletion at 340 nm): % activation, EC50, % max activation
Conditions: 10 uM compound; 5 mM glucose; % Activation=(Va/Vo−1)×100; read-out: % Activation at 10 uM
quantity-measured: activation at 10 µM (%)

Record excerpt, results attached:
{"smiles": "Cn1ccc(NC(=O)c2cc(Oc3ccc(C#N)c(F)c3)c3c(c2)OC(C)(C)C3)n1", "target": "Full-length glucokinase (beta cell isoform) (Homo sapiens)", "quantity-measured": "activation at 10 µM", "recorded-measurement": 237}
{"smiles": "CCc1nc(O)cc(COc2cc(C(=O)Nc3ccn(C)n3)cc3c2CC(C)(C)O3)n1", "target": "Full-length glucokinase (beta cell isoform) (Homo sapiens)", "quantity-measured": "activation at 10 µM", "recorded-measurement": 149}

A. CCNC(=O)c1ncc(Oc2cc(C(=O)Nc3ccn(C)n3)cc3c2CC(C)(C)O3)cc1F
B. Cc1ccc(NC(=O)c2cc(OC(C)C)cc3occc23)nc1
Task: Between A and B , whose recorded activation at 10 µM is greater? Respond with the label that goes with your answer.
Result: A
(A: 204%, B: 89.5%)
